system: Abcg2c
So basically: is GI50 under 2000 nM? Then 1.0. Not under? Then 0.0.

Use these answered entries as a reference point.
C#Cc1cccc(Nc2ncnc3cc(OC)c(OCCCCCCC(=O)NO)cc23)c1 ... 1.0
NS(=O)(=O)OC[C@H]1C[C@@H](Nc2ccnc3cc(-c4cccc(SC(F)(F)F)c4)nn23)[C@H](O)[C@@H]1O ... 1.0
CN(C)C/C=C/C(=O)Nc1ccc(C(=O)N2CCC[C@@H](Nc3ncc(Cl)c(-c4c[nH]c5ccccc45)n3)C2)cc1 ... 0.0
CN(C)C1CCN(C(=O)c2ccc(NC(=O)Nc3ccc(-c4nc(N5CCOCC5)nc(N5CCOCC5)n4)cc3)cc2)CC1 ... 0.0

Consider the record given below.
Incoming: Report whether reported GI50 is lower than 2000 nM (strictly) for NS(=O)(=O)OC[C@@H]1C[C@@H](n2ccc3c(N[C@H]4CCc5ccccc54)ncnc32)C[C@@H]1O
Outgoing: 1.0

* * *

system: Abcg2b
So basically: is GI50 under 0.5 µM? Then Y. Not under? Then N.

NS(=O)(=O)OC[C@@H]1C[C@@H](n2ccc3c(N[C@H]4CCc5ccccc54)ncnc32)C[C@@H]1O ... N

Incoming: Report whether reported GI50 is lower than 0.5 µM (strictly) for CN(C)C/C=C/C(=O)Nc1ccc(C(=O)N2CCC[C@@H](Nc3ncc(Cl)c(-c4c[nH]c5ccccc45)n3)C2)cc1
Outgoing: N

Incoming: Same read-out for Cc1nc(Nc2[nH]nc3c2CN(C(=O)N[C@H](CN(C)C)c2ccccc2)C3(C)C)c2sccc2n1 ?
Outgoing: Y

Incoming: Same read-out for C#Cc1cccc(Nc2ncnc3cc(OC)c(OCCCCCCC(=O)NO)cc23)c1 ?
Outgoing: N

Incoming: Same read-out for CN(C)C1CCN(C(=O)c2ccc(NC(=O)Nc3ccc(-c4nc(N5CCOCC5)nc(N5CCOCC5)n4)cc3)cc2)CC1 ?
Outgoing: N

Incoming: Same read-out for NS(=O)(=O)OC[C@H]1C[C@@H](Nc2ccnc3cc(-c4cccc(SC(F)(F)F)c4)nn23)[C@H](O)[C@@H]1O ?
Outgoing: Y

* * *

system: Empty vector
So basically: is GI50 under 400 nM? Then Y. Not under? Then N.

Use these answered entries as a reference point.
CN(C)C1CCN(C(=O)c2ccc(NC(=O)Nc3ccc(-c4nc(N5CCOCC5)nc(N5CCOCC5)n4)cc3)cc2)CC1 ... Y
C#Cc1cccc(Nc2ncnc3cc(OC)c(OCCCCCCC(=O)NO)cc23)c1 ... N
NS(=O)(=O)OC[C@@H]1C[C@@H](n2ccc3c(N[C@H]4CCc5ccccc54)ncnc32)C[C@@H]1O ... N
Cc1nc(Nc2[nH]nc3c2CN(C(=O)N[C@H](CN(C)C)c2ccccc2)C3(C)C)c2sccc2n1 ... Y
CN(C)C/C=C/C(=O)Nc1ccc(C(=O)N2CCC[C@@H](Nc3ncc(Cl)c(-c4c[nH]c5ccccc45)n3)C2)cc1 ... N

Consider the record given below.
Incoming: Report whether reported GI50 is lower than 400 nM (strictly) for NS(=O)(=O)OC[C@H]1C[C@@H](Nc2ccnc3cc(-c4cccc(SC(F)(F)F)c4)nn23)[C@H](O)[C@@H]1O
Outgoing: Y
